These data points were gathered from patent US20080161232A1.

Give IC50 for every item shown.
target: human C5aR(CD88) (Homo sapiens); construct: expressed in transfected cells; host or cells: rat basophilic leukemia cells (RBL); assay: Determination of the IC50 value in an enzyme release assay (functional assay, antagonistic activity); format: cell-based; settings: antagonistic activity; IC50 group in enzyme release assay, RBL cells expressing human C5aR(CD88); read-out: activity (group)
Sequence (P21730 whole entry): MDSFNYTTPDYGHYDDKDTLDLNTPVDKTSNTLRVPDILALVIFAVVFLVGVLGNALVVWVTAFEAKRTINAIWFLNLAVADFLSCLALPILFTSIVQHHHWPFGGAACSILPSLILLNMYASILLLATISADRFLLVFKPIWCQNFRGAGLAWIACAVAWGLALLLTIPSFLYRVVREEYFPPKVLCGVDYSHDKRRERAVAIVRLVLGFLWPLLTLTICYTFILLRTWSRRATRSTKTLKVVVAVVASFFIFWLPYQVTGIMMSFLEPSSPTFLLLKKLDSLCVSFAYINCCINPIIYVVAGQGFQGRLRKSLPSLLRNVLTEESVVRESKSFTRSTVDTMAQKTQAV
Positions of bridges follow the written chain, without caps; N, C: chain ends. Non-standard residues stand in square brackets, D forms with d. Residues, ends and D or L forms follow the SMILES beside them. Phe(3-Cl) = N[C@@H](Cc1cccc(Cl)c1)C(=O)O; 1Nal = N[C@@H](Cc1cccc2ccccc12)C(=O)O; d(hLeu) = CC(C)CC[C@@H](N)C(=O)O; dCha = N[C@H](CC1CCCCC1)C(=O)O; Orn = NCCC[C@H](N)C(=O)O

The examples below pair each entry with its known result.
Entry under review: CCCC[C@@H]1NC(=O)[C@H](Cc2csc3ccccc23)NC(=O)[C@@H](CC2CCCCC2)NC(=O)[C@@H]2CCCN2C(=O)[C@@H](NCc2ccccc2)CCCNC1=O [Compound 315, Bzl-[Orn-Pro-cha-Bta-Nle]] . Reported IC50? 50 to 200 nM

Entry under review: CC(=O)N[C@@H](Cc1ccccc1)C(=O)N[C@H]1CCCNC(=O)[C@H](Cc2cccc3ccccc23)NC(=O)[C@H](Cc2c[nH]c3ccccc23)NC(=O)[C@@H](CC2CCCCC2)NC(=O)[C@@H]2CCCN2C1=O [Compound 58, Ac-Phe-[Orn-Pro-cha-Trp-1Ni]] (Ac-F[Orn]P[dCha]W[1Nal]; lactam 2-C) . Reported IC50? 20 to 50 nM

Entry under review: CC(=O)N[C@@H](Cc1ccccc1)C(=O)N[C@@H](CCCNC(=N)N)C(=O)N1CCC[C@H]1C(=O)N[C@H](CCC(C)C)C(=O)N[C@@H](Cc1cccc(Cl)c1)C(=O)N[C@@H](Cc1ccccc1)C(N)=O [Compound 208, Ac-Phe-Arg-Pro-hle-Mcf-Phe-NH2] (Ac-FRP[d(hLeu)][Phe(3-Cl)]F-NH2) . Reported IC50? 50 to 200 nM

Field: next compound
Entry under review: CC(=O)N[C@@H](Cc1ccccc1)C(=O)N[C@@H](CCC(=O)O)C(=O)N1CCC[C@H]1C(=O)N[C@H](CC1CCCCC1)C(=O)N[C@@H](Cc1c[nH]c2ccccc12)C(=O)N[C@@H](Cc1ccccc1)C(N)=O [Compound 91, Ac-Phe-Glu-Pro-cha-Trp-Phe-NH2] (Ac-FEP[dCha]WF-NH2) . Reported IC50? 200 to 2000 nM
